# z-score listing for each entry below
experimentNotes: basal RPMI8226 viability, no added stimulus, profiling panel, cell-based, calcein-AM fluorescence, 48 h, PK04 Diversity Set (AID 1166);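 further: cells grown under basal conditions without added stimulus; test concentration not given here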
conditionSummary: RPMI8226 myeloma viability, higher = more signal
Lab note: jot down the number only; don't add units.

>>> reading("CCOC(=O)C1=CCC(c2ccc(C)cc2)N(S(=O)(=O)c2ccc(C)cc2)C1 (stereo not drawn)")
-1.37
>>> reading("COc1cc2c(cc1OC)CN(C(=O)[C@H]1[C@@H]3C(=O)O[C@@H](c4ccccc4)[C@@H](c4ccccc4)N3[C@@H](c3ccc(O)cc3)[C@]13C(=O)Nc1ccc(C#CCNC(N)=O)cc13)CC2")
0.168
>>> reading("COCCn1c(C(=O)N2CCCC2)cc2c1C[C@H]1CN(C(=O)c3ccccc3)[C@@](Cc3ccc(F)cc3)(C(=O)OC)[C@@H]21")
-1.22
>>> reading("CCCN1C(=O)[C@]2(CCS(=O)(=O)c3ccccc3)N=C(c3ccc(OCCCO)cc3)O[C@@H]2c2ccccc21")
-1.97
>>> reading("CC(C)C[C@@H]1NC(=O)[C@H]2C[C@@H](C(=O)NCCCCCCN)[C@@H](c3ccc(O)cc3)N2C1=O")
-0.953

In: I have this compound here, `CC(C)(C)OC(=O)CC[C@]12N=C(c3ccc(OCCCO)cc3)O[C@H]1c1ccccc1N(CCS(=O)(=O)c1ccccc1)C2=O` , and I need its recorded z-score.
Out: -0.568

In: Further, for CN1C(=O)C2C=CC(C(O)c3cccs3)N(Nc3ccccc3)C2C1=O (stereo not drawn) ?
Out: -0.535

In: Further, for `CC(C)(C)OC(=O)CC[C@@]1(C(=O)NCCN2CCOCC2)N=C(c2ccc(OCCCO)cc2)O[C@@H]1c1ccccc1N=[N+]=[N-]` ?
Out: -0.187
